target: Cytochrome P450 2C9 (Homo sapiens) (UniProt P11712); experiment: Cytochrome P450 Family 2 Subfamily C Member 9 (CYP2C9) small molecule antagonists: luciferase reporter qHTS assay (AID 1671198); conditions: P450-Glo CYP2C9 enzyme assay, luciferin luminescence; series mostly up to 115 µM; also: nearly all actives have a fitted effect of over 50% in size
Sequence (P11712 whole entry, looked up): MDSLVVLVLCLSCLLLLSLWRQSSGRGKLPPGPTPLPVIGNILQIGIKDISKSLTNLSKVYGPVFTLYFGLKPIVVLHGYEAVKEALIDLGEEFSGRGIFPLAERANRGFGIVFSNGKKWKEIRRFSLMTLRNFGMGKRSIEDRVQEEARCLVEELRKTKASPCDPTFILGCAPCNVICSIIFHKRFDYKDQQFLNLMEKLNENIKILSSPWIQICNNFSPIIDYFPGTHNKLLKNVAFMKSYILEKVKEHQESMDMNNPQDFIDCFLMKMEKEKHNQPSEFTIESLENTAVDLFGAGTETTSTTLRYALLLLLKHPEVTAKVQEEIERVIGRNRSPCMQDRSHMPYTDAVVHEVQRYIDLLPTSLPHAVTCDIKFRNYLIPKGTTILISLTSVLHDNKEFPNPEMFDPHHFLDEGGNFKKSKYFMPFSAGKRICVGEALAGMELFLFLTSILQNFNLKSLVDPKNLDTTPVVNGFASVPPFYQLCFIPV
Records with an inconclusive call do not appear. The source made the active and inactive calls. Calls follow the shape of the dose curve; as a rule, active = well fitted inhibition curve with a large enough effect in the repeat runs; inconclusive = weak or mixed curves; inactive = no such curve, though single readings can be large or run the other way.
Classes used: T (active), F (inactive)

1. c1ccc(C(O[C@H]2CCCN(CCc3ccc4c(c3)OCO4)C2)c2ccccc2)cc1; T
2. Cc1nn(C)c(Oc2ccccc2)c1/C=N/OCc1ccc(C(=O)OC(C)(C)C)cc1; T
3. CCN(CC)CCNC(=O)c1cc(Br)c(N)cc1OC; F
4. Nc1ccc(S(=O)(=O)Nc2ccccc2)cc1; F
5. OCCN1CCN(CCCN2c3ccccc3C=Cc3ccccc32)CC1; F
6. Cn1c(=O)cc(Oc2ccc(F)cc2F)c2cnc(NCC(C)(C)O)nc21; T
